TARGET DESC: Recombinant full length human OGA enzyme (Homo sapiens)
Construct: Recombinant full length human OGA enzyme was purchased from Origene; purchased Origene
Sequence (O60502 1-916): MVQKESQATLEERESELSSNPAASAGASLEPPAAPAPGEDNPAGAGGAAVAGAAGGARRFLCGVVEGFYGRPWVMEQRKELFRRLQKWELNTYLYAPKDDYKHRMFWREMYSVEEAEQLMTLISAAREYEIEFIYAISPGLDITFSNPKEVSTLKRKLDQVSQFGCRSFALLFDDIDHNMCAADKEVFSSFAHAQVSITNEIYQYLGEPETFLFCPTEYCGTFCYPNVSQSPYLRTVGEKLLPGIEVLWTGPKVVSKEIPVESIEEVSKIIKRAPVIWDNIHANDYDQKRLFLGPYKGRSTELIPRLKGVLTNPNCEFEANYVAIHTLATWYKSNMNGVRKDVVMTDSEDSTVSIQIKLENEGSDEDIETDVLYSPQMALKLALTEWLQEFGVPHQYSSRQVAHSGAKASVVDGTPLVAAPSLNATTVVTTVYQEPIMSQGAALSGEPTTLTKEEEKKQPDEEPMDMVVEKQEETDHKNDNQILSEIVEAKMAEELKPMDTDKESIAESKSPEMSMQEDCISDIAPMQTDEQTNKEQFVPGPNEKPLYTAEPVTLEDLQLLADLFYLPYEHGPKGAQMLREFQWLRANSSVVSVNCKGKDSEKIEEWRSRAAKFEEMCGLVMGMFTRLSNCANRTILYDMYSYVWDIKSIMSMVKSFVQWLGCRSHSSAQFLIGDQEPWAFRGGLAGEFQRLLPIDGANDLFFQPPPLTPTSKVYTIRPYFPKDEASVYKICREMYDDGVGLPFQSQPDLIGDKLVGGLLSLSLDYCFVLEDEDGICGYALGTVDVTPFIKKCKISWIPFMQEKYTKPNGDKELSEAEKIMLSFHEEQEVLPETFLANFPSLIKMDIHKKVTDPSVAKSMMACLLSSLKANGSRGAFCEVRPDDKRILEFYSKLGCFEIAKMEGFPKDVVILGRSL
ASSAY NAME: OGA Enzyme Inhibition Biochemical Assay
CONDITION SUMMARY: 1 nM OGA, 100 μM 4-MUGlcNAc (Km), pH 6.4, 90 minutes at room temperature, 10-point dose-response from 20 μM
pIC50: −log10 of the molar value.
Decision: pIC50 >= 8 yields Satisfied, all other cases yield Not satisfied.

CCC(=O)Nc1nc(F)c(CN2CCC[C@H](Cc3cc(OC)ncn3)C2)s1 [Example 3-49]
Satisfied
CC(=O)Nc1ncc(CN2CCCC(Cc3cncc(C(F)(F)F)n3)C2)s1 (stereo not shown) [Example 1-26]
Not satisfied
CCC(=O)Nc1nc(F)c(CN2CCC[C@H](Cc3ncc(F)cn3)C2)s1 [Example 3-17]
Satisfied
CC(=O)Nc1ncc(CN2CCCC(Cc3ncccc3C(F)(F)F)C2)s1 (stereo not shown) [Example 1-46]
Not satisfied
CC(=O)Nc1ncc(CN2CCC[C@H](Cc3ccc(C(F)F)nc3)C2)s1 [Example 2-8]
Not satisfied

Ask: Say whether CC(=O)Nc1ncc(CN2CCCC(Cn3cc(F)cn3)C2)s1 (stereo not shown) [Example 4-1] shows pIC50 of 8 or more.
Result: Not satisfied

Ask: Say whether CC(=O)Nc1ncc(CN2CCCC(Cc3ccc(C)cn3)C2)s1 (stereo not shown) [Example 1-31] shows pIC50 of 8 or more.
Result: Satisfied

* * *

TARGET DESC: Recombinant full length human OGA enzyme (Homo sapiens, UniProt O60502)
Construct: Recombinant full length human OGA enzyme was purchased from Origene
Sequence (O60502 1-916): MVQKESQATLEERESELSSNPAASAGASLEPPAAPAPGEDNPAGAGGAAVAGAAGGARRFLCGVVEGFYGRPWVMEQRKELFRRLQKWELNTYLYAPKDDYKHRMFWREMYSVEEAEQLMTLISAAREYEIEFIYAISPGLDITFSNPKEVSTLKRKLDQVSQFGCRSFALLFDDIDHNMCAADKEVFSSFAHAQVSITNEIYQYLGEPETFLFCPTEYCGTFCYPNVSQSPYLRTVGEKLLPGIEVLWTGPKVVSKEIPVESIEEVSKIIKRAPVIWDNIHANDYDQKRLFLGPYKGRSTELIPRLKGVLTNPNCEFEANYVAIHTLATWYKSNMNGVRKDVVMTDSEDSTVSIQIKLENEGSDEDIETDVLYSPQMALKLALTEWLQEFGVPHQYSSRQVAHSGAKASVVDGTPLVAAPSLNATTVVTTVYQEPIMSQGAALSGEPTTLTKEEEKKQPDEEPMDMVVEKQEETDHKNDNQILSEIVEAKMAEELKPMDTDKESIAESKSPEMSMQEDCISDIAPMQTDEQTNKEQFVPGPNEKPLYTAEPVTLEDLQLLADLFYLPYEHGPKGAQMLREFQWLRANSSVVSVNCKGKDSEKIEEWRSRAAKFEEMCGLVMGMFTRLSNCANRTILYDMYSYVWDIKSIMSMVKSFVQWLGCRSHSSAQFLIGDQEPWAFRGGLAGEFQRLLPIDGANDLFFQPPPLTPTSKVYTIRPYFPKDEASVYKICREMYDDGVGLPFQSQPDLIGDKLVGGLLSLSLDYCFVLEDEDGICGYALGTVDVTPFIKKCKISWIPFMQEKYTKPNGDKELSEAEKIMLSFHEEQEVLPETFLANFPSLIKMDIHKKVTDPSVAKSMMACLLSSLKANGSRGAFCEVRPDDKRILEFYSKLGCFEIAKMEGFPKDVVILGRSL
ASSAY NAME: OGA Enzyme Inhibition Biochemical Assay
CONDITION SUMMARY: 1 nM OGA, 100 μM 4-MUGlcNAc (Km), pH 6.4, 90 minutes at room temperature, 10-point dose-response from 20 μM
Recorded pIC50 by entry
Field pIC50 (float): negative decimal logarithm of the concentration in molar.

Consider the following illustrative entries.
CC(=O)Nc1nc(F)c(CN2C[C@H](Cc3ncc(F)cn3)C[C@H]2C)s1
6.51
CC(=O)Nc1nc(Cl)c(CN2CC[C@H](Cc3cc(C)nc(C)c3)C2)s1
6.82
CC(=O)Nc1ncc(CN2CCCC(Cc3cncc(C)n3)C2)s1 (centres unmarked)
8.40
CC(=O)Nc1ncc(CN2C[C@@H](Cc3ncc(F)cn3)C[C@H]2C)s1 (single isomer, unassigned)
9.00

Ask: Provide only the value of recorded pIC50 for CC(=O)Nc1ncc(CN2CCCC(Cn3cc(C4CCC4)cn3)C2)s1 (centres unmarked)
Result: 6.18

Ask: Provide only the value of recorded pIC50 for COc1cc(C[C@H]2CCN(Cc3sc(NC(C)=O)nc3F)C2)ccn1
Result: 8.05

Ask: Provide only the value of recorded pIC50 for CCC(=O)Nc1nc(F)c(CN2CC[C@H](Cc3ncc(F)cn3)C2)s1
Result: 7.47

Ask: Provide only the value of recorded pIC50 for CC(=O)Nc1ncc(CN2C[C@@H](Cc3ncc(F)cn3)CC[C@@H]2C)s1 (single isomer, unassigned)
Result: 6.00

* * *

Recorded pIC50 by entry
TARGET DESC: Recombinant full length human OGA enzyme (Homo sapiens, UniProt O60502)
Construct: Recombinant full length human OGA enzyme was purchased from Origene
Sequence (O60502 1-916): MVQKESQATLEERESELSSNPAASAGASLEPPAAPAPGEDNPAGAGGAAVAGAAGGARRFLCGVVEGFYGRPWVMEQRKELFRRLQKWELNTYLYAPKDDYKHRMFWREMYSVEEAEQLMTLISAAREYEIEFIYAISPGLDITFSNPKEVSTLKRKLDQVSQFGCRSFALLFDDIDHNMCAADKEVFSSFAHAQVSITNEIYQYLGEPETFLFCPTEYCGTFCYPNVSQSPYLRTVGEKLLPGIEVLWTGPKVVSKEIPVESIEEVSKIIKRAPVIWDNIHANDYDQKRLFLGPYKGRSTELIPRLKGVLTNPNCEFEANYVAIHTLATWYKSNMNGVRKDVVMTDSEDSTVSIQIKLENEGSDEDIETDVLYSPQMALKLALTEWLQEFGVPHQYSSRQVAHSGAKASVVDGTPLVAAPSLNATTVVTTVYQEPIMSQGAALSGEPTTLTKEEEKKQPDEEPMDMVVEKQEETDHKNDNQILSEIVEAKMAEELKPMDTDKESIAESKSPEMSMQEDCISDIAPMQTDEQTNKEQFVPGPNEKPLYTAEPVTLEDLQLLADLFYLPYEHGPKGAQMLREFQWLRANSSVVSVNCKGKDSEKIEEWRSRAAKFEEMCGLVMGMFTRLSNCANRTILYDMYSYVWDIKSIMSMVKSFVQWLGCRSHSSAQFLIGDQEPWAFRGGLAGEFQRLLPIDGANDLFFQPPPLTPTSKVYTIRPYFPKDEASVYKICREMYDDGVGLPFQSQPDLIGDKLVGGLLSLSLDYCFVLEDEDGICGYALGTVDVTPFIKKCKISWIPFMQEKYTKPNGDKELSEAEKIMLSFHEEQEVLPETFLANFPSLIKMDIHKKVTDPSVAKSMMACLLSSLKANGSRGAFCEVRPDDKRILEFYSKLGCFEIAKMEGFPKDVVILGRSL
ASSAY NAME: OGA Enzyme Inhibition Biochemical Assay
CONDITION SUMMARY: 1 nM OGA, 100 μM 4-MUGlcNAc (Km), pH 6.4, 90 minutes at room temperature, 10-point dose-response from 20 μM
Protocol: OGA Enzyme Inhibition Biochemical Assay Recombinant full length human OGA enzyme was purchased from Origene. 4-MUGlCNAc substrate was purchased from Sigma. All other reagents were purchased from Sigma or Fisher. […] Reactions were incubated for 90 minutes at room temperature and quenched with 40 μl of 3M glycine, pH 10 and read on a Perkin Elmer Envision plate reader (Ex: 355 nm/Em: 460 nm). […]
Field pIC50 (float): negative decimal logarithm of the concentration in molar.

Consider the following illustrative entries.
CC(=O)Nc1ncc(CN2CCC(Cc3ccc(F)cn3)C2)s1 (centres unmarked)
6.66
CC(=O)Nc1ncc(CN2CCCC(Cn3cc(Br)cn3)C2)s1 (centres unmarked)
6.51
COc1cccc(CC2CCN(Cc3cnc(NC(C)=O)s3)C2)c1 (centres unmarked)
7.66

Ask: Recall the reported pIC50 of COc1cccc(CC2CCCN(Cc3cnc(NC(C)=O)s3)C2)c1 (centres unmarked) when tested on Recombinant full length human OGA enzyme (Homo sapiens, UniProt O60502).
Result: 7.48

Reference source for all entries: patent US11459324B2
